So I've got a bunch of molecules here, and I need their CL values.
# System: Liver microsomes
# Experimental conditions: human, 1 µM
Output spec: scalar in µL/min/mg, unitless text.

Find the recorded CL belonging to "Cc1cc(Nc2ccc(C)c(C)c2)n2ncnc2n1" and report it. 77

Check "Cc1cc(Nc2ccc(C(F)(F)F)c(F)c2)n2ncnc2n1" too. 4.8

Check "Cc1cc(Nc2ccc(Br)c(C(F)(F)F)c2)n2ncnc2n1" too. 14

Check "Cc1cc(Nc2ccc3cc4ccccc4cc3c2)n2ncnc2n1" too. 37

Check "Cc1cc(Nc2ccc(Cl)c(C(F)(F)F)c2)n2ncnc2n1" too. 13

---

# System: Plasmodium berghei
# Assay notes: Inhibition of Plasmodium berghei ANKA DHODH
Recorded metric: IC50

Find the recorded IC50 belonging to "Cc1cc(Nc2ccc(OC(F)F)cc2)n2ncnc2n1" and report it. 25 µM

Check "Cc1cc(Nc2ccccc2C)n2ncnc2n1" too. > 100 µM

Check "Cc1cccc(Nc2cc(C)nc3ncnn23)c1" too. > 100 µM

Check "Cc1cc(Nc2c(F)cc(F)cc2F)n2ncnc2n1" too. > 100 µM

Check "Cc1cc(Nc2ccc([N+](=O)[O-])cc2)n2ncnc2n1" too. 3.7 µM

Check "Cc1cc(Nc2cccc(F)c2)n2ncnc2n1" too. > 100 µM

Check "Cc1cc(Nc2ccccc2C#N)n2ncnc2n1" too. > 100 µM

Check "Cc1cc(Nc2ccc(Cc3ccccc3)cc2)n2ncnc2n1" too. > 100 µM

Check "Cc1cc(Nc2cc(C(F)(F)F)cc(C(F)(F)F)c2)n2ncnc2n1" too. > 100 µM

Check "Cc1cc(Nc2ccc(C)c(C(F)(F)F)c2)n2ncnc2n1" too. 7.3 µM

Check "Cc1cc(Nc2cccc(C(F)(F)F)c2)n2ncnc2n1" too. 55 µM

Check "Cc1cc(Nc2ccccc2F)n2ncnc2n1" too. > 100 µM

Check "COc1ccc(Nc2cc(C)nc3ncnn23)cc1" too. > 50 µM

---

So I've got a bunch of compounds here, and I need their pIC50 values.
# System: Plasmodium berghei
# Assay notes: Inhibition of Plasmodium berghei ANKA DHODH
// pIC50: -log10(molar conc.)

Request: pIC50, test system Plasmodium berghei, entry "Cc1cc(Nc2ccc(Cl)c(C(F)(F)F)c2)n2ncnc2n1" 5.62

Check "Cc1cc(Nc2ccc(OC(F)(F)F)cc2)n2ncnc2n1" too. 5.40

Check "Cc1cc(Nc2ccc(C#N)c(C(F)(F)F)c2)n2ncnc2n1" too. 4.96

Check "Cc1cc(Nc2ccc(F)c(F)c2)n2ncnc2n1" too. 5.00

Check "Cc1cc(Nc2cc(F)cc(F)c2)n2ncnc2n1" too. 4.68

Check "Cc1cc(Nc2ccc(Cl)cc2)n2ncnc2n1" too. 5.24

---

# Test system: Plasmodium berghei
# Assay notes: Inhibition of Plasmodium berghei ANKA DHODH
Recorded metric: pIC50
// pIC50: -log10(molar conc.)

Request: pIC50, test system Plasmodium berghei, entry "Cc1cc(Nc2ccc(Br)cc2)n2ncnc2n1" 5.89

Check "Cc1cc(Nc2ccc(C(F)(F)F)c(F)c2)n2ncnc2n1" too. 6.59

Check "Cc1cc(Nc2ccc(F)c(C)c2)n2ncnc2n1" too. 4.68

---

Protein target, amino acids: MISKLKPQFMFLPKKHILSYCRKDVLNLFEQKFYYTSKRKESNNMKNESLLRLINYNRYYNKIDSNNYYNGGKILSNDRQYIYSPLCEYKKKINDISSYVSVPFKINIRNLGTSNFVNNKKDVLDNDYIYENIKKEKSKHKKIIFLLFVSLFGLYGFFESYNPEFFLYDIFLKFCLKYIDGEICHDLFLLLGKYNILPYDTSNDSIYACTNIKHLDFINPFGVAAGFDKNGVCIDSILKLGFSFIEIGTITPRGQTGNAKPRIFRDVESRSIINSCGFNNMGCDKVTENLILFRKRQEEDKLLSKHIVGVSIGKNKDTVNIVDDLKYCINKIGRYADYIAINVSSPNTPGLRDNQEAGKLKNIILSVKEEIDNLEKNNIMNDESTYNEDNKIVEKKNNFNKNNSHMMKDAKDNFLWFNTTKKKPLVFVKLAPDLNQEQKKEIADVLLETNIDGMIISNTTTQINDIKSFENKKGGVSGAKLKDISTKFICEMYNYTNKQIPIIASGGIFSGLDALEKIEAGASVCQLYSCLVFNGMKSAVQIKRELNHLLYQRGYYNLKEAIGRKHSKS
So I've got a bunch of molecules here, and I need their IC50 values.

Find the recorded IC50 belonging to "Cc1cc(Nc2cc(C(F)(F)F)cc(C(F)(F)F)c2)n2ncnc2n1" and report it. > 100 µM

Check "Cc1cc(Nc2c(F)cc(F)cc2F)n2ncnc2n1" too. > 100 µM

Check "Cc1cc(Nc2ccccc2Cl)n2ncnc2n1" too. > 100 µM

Check "Cc1cc(Nc2cc(F)ccc2F)n2ncnc2n1" too. > 50 µM

Check "Cc1cc(Nc2ccccc2F)n2ncnc2n1" too. > 100 µM

Check "Cc1cc(Nc2c(F)c(F)cc(F)c2F)n2ncnc2n1" too. > 100 µM
